- Tgt: T1, activated human complement C1s (human, UniProt P09871 16-688)
- T1 construct: also called aC1s; active C1s
- T1 sequence: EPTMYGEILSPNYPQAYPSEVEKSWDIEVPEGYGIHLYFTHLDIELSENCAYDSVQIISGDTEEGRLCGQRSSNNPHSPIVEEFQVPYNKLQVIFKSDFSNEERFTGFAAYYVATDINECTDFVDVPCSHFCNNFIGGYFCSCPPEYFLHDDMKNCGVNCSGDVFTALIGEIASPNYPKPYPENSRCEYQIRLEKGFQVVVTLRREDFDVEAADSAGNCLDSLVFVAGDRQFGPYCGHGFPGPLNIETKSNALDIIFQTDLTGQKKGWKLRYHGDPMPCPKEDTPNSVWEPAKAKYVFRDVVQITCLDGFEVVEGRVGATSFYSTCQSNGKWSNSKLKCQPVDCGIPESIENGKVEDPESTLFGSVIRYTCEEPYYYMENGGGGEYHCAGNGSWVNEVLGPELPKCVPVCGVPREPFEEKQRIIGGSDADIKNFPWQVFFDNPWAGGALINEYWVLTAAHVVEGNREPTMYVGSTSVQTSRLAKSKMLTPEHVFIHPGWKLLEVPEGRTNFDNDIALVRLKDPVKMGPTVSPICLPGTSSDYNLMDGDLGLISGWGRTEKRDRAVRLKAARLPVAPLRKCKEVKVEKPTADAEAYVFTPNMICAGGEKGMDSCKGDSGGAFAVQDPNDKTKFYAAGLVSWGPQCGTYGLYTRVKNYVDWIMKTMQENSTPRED
- Experimental Protocol: kinetic characterization of binding to active human C1s; instrument not stated; column head kdis
Readout Type: koff (s⁻¹)
Reply numerically in s⁻¹, unit not repeated.

Example entries begin here.
{"columns": ["Binder", "Observed Measurement"],
 "data": [
  ["humanized TNT005 variant VH variant 1+Vk variant 5 (antibody, V domains shown, also called VH variant 1 + VL variant 5) VH: EVQLVQSGAELKKPGASVKLSCTASGFNIKDDYIHWVKQAPGQGLEWIGRIDPADGHTKYAPKFQVKATITADTSTNTAYLQLSSLTSEDTAVYYCARYGYGREVFDYWGQGTTVTVSS VL: DIVLTQSPDSLAVSLGERATISCKASQSVDYDGDSYMNWYQQKPGQPPKLLIYDASNLESGIPARFSGSGSGTDFTLTISSLEPEDFAVYYCQQSNEDPWTFGGGTKVEIK", 0.000168],
  ["humanized TNT005 variant VH variant 3+Vk variant 2 (antibody, V domains shown, also called VH variant 3 + VL variant 2) VH: QVQLVQSGAEVKKPGASVKLSCTASGFNIKDDYIHWVKQAPGQGLEWIGRIDPADGHTKYAPKFQVKVTITADTSTSTAYLELSSLRSEDTAVYYCARYGYGREVFDYWGQGTTVTVSS VL: DIVLTQSPDSLAVSLGERATISCKASQSVDYDGDSYMNWYQQKPGQPPKILIYDASNLESGIPARFSGSGSGTDFTLTISSLEPEDFAIYYCQQSNEDPWTFGGGTKVEIK", 0.00049],
  ["humanized TNT005 variant VH variant 1+Vk variant 1 (antibody, V domains shown, also called VH variant 1 + VL variant 1) VH: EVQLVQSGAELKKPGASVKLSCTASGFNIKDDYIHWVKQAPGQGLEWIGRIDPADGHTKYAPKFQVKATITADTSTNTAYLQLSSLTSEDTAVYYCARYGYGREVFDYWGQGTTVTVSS VL: DIVLTQSPDSLAVSLGERATISCKASQSVDYDGDSYMNWYQQKTGQPPKILIYDASNLESGIPARFSGSGSGTDFTLTISSLEEEDFAIYYCQQSNEDPWTFGGGTKVEIK", 0.000197]
]}

Would you kindly look at the next entry?
// query koff value for entry humanized TNT005 variant VH variant 1+Vk variant 2 (antibody, V domains shown, also called VH variant 1 + VL variant 2) VH: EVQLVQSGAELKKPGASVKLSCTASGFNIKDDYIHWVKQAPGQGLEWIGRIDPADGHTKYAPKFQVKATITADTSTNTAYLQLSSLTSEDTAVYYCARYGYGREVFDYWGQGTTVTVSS VL: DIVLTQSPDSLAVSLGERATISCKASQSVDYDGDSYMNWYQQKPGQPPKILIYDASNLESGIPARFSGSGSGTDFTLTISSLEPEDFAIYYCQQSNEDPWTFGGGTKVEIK
0.00017
